// Kd lookup, one value per entry
biological target: Neutrophil elastase (Homo sapiens, UniProt P08246); assay: Inhibitory activity against human leukocyte elastase
Sequence (P08246 whole entry): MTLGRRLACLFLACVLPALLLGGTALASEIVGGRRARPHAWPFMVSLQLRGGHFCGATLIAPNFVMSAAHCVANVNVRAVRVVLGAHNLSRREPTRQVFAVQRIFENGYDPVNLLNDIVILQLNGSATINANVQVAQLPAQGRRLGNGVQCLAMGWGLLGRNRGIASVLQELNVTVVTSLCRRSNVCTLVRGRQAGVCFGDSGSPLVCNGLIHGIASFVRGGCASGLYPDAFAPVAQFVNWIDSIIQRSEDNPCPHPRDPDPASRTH
assayEndpoint: Kd (µM)

{"structureNotation": "CCN(CC)c1nc2scc(C)c2c(=O)o1", "unitsText": "µM", "valueReported": 5.5}
{"structureNotation": "CCN(CC)c1nc2sc(C(N)=O)c(C)c2c(=O)o1", "unitsText": "µM", "valueReported": 0.62}

----------
molecular target: Neutrophil elastase (Homo sapiens); assay: Inhibitory activity against human leukocyte elastase
assayEndpoint: log10 of Ki (log10 of the value in nM)

{"molecule": "CCN(CC)c1nc2scc(C)c2c(=O)o1", "measuredTarget": "Neutrophil elastase (Homo sapiens)", "valueReported": 2.65}
{"molecule": "CCN(CC)c1nc2scc(C(C)C)c2c(=O)o1", "measuredTarget": "Neutrophil elastase (Homo sapiens)", "valueReported": 1.12}
{"molecule": "CCN(CC)c1nc2sc3c(c2c(=O)o1)C(C)CCC3 (stereo not given)", "measuredTarget": "Neutrophil elastase (Homo sapiens)", "valueReported": 2.31}
{"molecule": "CCN(CC)c1nc2sc(C(N)=O)c(C)c2c(=O)o1", "measuredTarget": "Neutrophil elastase (Homo sapiens)", "valueReported": 1.96}
{"molecule": "CCN(CC)c1nc2sc3c(c2c(=O)o1)CCCC3", "measuredTarget": "Neutrophil elastase (Homo sapiens)", "valueReported": 1.10}
{"molecule": "CCN(CC)c1nc2sccc2c(=O)o1", "measuredTarget": "Neutrophil elastase (Homo sapiens)", "valueReported": 2.41}
{"molecule": "CCN(CC)c1nc2sc3c(c2c(=O)o1)CCC3", "measuredTarget": "Neutrophil elastase (Homo sapiens)", "valueReported": 1.10}
{"molecule": "CCN(CC)c1nc2sc3ccccc3c2c(=O)o1", "measuredTarget": "Neutrophil elastase (Homo sapiens)", "valueReported": 0.76}
{"molecule": "CCN(CC)c1nc2sc3c(c2c(=O)o1)CCCCC3", "measuredTarget": "Neutrophil elastase (Homo sapiens)", "valueReported": 1.64}
{"molecule": "CCN(CC)c1nc2ccccc2c(=O)o1", "measuredTarget": "Neutrophil elastase (Homo sapiens)", "valueReported": 2.48}

Source: ChEMBL document CHEMBL1132695
